- System: DeltatarO mutant
- Assay Explanation: S. aureus survival, RN4220 and DeltatarO strains – OD600, teichoic acid synthesis inhibitors, primary screen (AID 463173)
- Applied Conditions: S. aureus RN4220 wild type/DeltatarO growth, OD600, 18 h, screened at 18.75 µg/mL (by protocol)
Screen size: about 52,000 compounds; about 4,300 (8.3%) were called active. No stated cut-off is given here; in the data, active means survival mostly below about 52% (no sharp cut-off); inactive means mostly above about 56%. Many of the other results were omitted from the sample, so actives are more common in it than they were.
Return exactly one item of Yes for active, No for inactive

For this compound, state the assay outcome: `Cc1nc2ccccn2c(=O)c1NC(=O)c1ccccc1Cl`
No

For this compound, state the assay outcome: `Cc1ccc(C(=O)Nc2c(C)nc3ccccn3c2=O)cc1C`
No

For this compound, state the assay outcome: `Cc1ccccc1C(=O)Nc1c(C)nc2ccccn2c1=O`
Yes

For this compound, state the assay outcome: `Cc1ccc(C(=O)Nc2c(C)nc3ccccn3c2=O)cc1`
No

For this compound, state the assay outcome: `COCCCNC(=O)c1cc2c(=O)oc3ccc(C)cc3c2s1`
No

For this compound, state the assay outcome: `Cc1nc2ccccn2c(=O)c1NC(=O)c1ccc(C(F)(F)F)cc1`
Yes
